experiment: Probe fluorescence ratio response to stearic acid relative to ADIFAB2; assay type: binding; conditions: Table 5

molecule	ΔR/DRAΔ2 SA
L2P8B8: FABP probe, substitution A73F vs SEQ ID NO: 2 (protein, listed as Rattus norvegicus, PEPTIDE (1)...(131) wild-type rat intestinal fatty acid binding protein) AFDGTWKVDRNENYEKFMEKMGINVVKRKLGAHDNLKLTITQEGNKFTVKESSNFRNIDVVFELGVDFAYSLFDGTELTGTWTMEGNKLVGKFKRVDNGKELIAVREISGNELIQTYTYEGVEAKRIFKKE	0.4
L2P16A3: FABP probe, substitutions M18I G31L A73G vs SEQ ID NO: 2 (protein, listed as Rattus norvegicus, PEPTIDE (1)...(131) wild-type rat intestinal fatty acid binding protein) AFDGTWKVDRNENYEKFIEKMGINVVKRKLLAHDNLKLTITQEGNKFTVKESSNFRNIDVVFELGVDFAYSLGDGTELTGTWTMEGNKLVGKFKRVDNGKELIAVREISGNELIQTYTYEGVEAKRIFKKE	0.3
L2P23A4: FABP probe, substitutions M18V G31I F55L A73V vs SEQ ID NO: 2 (protein, listed as Rattus norvegicus, PEPTIDE (1)...(131) wild-type rat intestinal fatty acid binding protein) AFDGTWKVDRNENYEKFVEKMGINVVKRKLIAHDNLKLTITQEGNKFTVKESSNLRNIDVVFELGVDFAYSLVDGTELTGTWTMEGNKLVGKFKRVDNGKELIAVREISGNELIQTYTYEGVEAKRIFKKE	1.2
L2P9E12: FABP probe, substitutions M18L F55L A73I vs SEQ ID NO: 2 (protein, listed as Rattus norvegicus, PEPTIDE (1)...(131) wild-type rat intestinal fatty acid binding protein) AFDGTWKVDRNENYEKFLEKMGINVVKRKLGAHDNLKLTITQEGNKFTVKESSNLRNIDVVFELGVDFAYSLIDGTELTGTWTMEGNKLVGKFKRVDNGKELIAVREISGNELIQTYTYEGVEAKRIFKKE	0.4
L2P21G3: FABP probe, substitutions M18I G31M F55M vs SEQ ID NO: 2 (protein, listed as Rattus norvegicus, PEPTIDE (1)...(131) wild-type rat intestinal fatty acid binding protein) AFDGTWKVDRNENYEKFIEKMGINVVKRKLMAHDNLKLTITQEGNKFTVKESSNMRNIDVVFELGVDFAYSLADGTELTGTWTMEGNKLVGKFKRVDNGKELIAVREISGNELIQTYTYEGVEAKRIFKKE	0.3
L2P22G6: FABP probe, substitutions M18I G31Y A73G vs SEQ ID NO: 2 (protein, listed as Rattus norvegicus, PEPTIDE (1)...(131) wild-type rat intestinal fatty acid binding protein) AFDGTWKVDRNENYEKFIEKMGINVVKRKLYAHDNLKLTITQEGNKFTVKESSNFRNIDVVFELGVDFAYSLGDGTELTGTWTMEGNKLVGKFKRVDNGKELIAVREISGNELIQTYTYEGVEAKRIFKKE	0.9
L2P8F11: FABP probe, substitution A73I vs SEQ ID NO: 2 (protein, listed as Rattus norvegicus, PEPTIDE (1)...(131) wild-type rat intestinal fatty acid binding protein) AFDGTWKVDRNENYEKFMEKMGINVVKRKLGAHDNLKLTITQEGNKFTVKESSNFRNIDVVFELGVDFAYSLIDGTELTGTWTMEGNKLVGKFKRVDNGKELIAVREISGNELIQTYTYEGVEAKRIFKKE	0.3
L2P7F4: FABP probe, substitutions M18V G31V A73I vs SEQ ID NO: 2 (protein, listed as Rattus norvegicus, PEPTIDE (1)...(131) wild-type rat intestinal fatty acid binding protein) AFDGTWKVDRNENYEKFVEKMGINVVKRKLVAHDNLKLTITQEGNKFTVKESSNFRNIDVVFELGVDFAYSLIDGTELTGTWTMEGNKLVGKFKRVDNGKELIAVREISGNELIQTYTYEGVEAKRIFKKE	0.3
L2P22H10: FABP probe, substitutions M18I F55G A73M vs SEQ ID NO: 2 (protein, listed as Rattus norvegicus, PEPTIDE (1)...(131) wild-type rat intestinal fatty acid binding protein) AFDGTWKVDRNENYEKFIEKMGINVVKRKLGAHDNLKLTITQEGNKFTVKESSNGRNIDVVFELGVDFAYSLMDGTELTGTWTMEGNKLVGKFKRVDNGKELIAVREISGNELIQTYTYEGVEAKRIFKKE	0.4
L2P4C5: FABP probe, substitutions M18I G31Y vs SEQ ID NO: 2 (protein, listed as Rattus norvegicus, PEPTIDE (1)...(131) wild-type rat intestinal fatty acid binding protein) AFDGTWKVDRNENYEKFIEKMGINVVKRKLYAHDNLKLTITQEGNKFTVKESSNFRNIDVVFELGVDFAYSLADGTELTGTWTMEGNKLVGKFKRVDNGKELIAVREISGNELIQTYTYEGVEAKRIFKKE	1.0
